# System: Escherichia coli TOP10
# experiment-summary: shrunken log2 fold change of peptide-encoding DNA abundance (4.5 h post-induction vs induction); higher = less antimicrobial activity (less host growth inhibition)
# experimental-parameters: time post-induction: 4.5 h; library: site-saturation at positions 5, 18, 19, 20
Assign class by shrunken log2 fold change: not lower than -0.06 means true; lower than -0.06 means false.

sequence-string	assigned-class
RRIRARPPRLPRPRPRPWPAPRP	true
RRIRKRPPRLPRPRPRPQHMPRP	true
RRIRRRPPRLPRPRPRPRQDPRP	true
RRIRQRPPRLPRPRPRPPPIPRP	true
RRIRERPPRLPRPRPRPIYFPRP	false
RRIRFRPPRLPRPRPRPSNNPRP	false
RRIRRRPPRLPRPRPRPLMFPRP	true
RRIRYRPPRLPRPRPRPHPSPRP	true
RRIRMRPPRLPRPRPRPHPIPRP	false
RRIRRRPPRLPRPRPRPPEYPRP	true
RRIRERPPRLPRPRPRPCWPPRP	true
RRIRFRPPRLPRPRPRPGTNPRP	false
RRIRIRPPRLPRPRPRPIVTPRP	false
RRIRARPPRLPRPRPRPISWPRP	true
RRIRNRPPRLPRPRPRPRWEPRP	true
RRIRMRPPRLPRPRPRPVGIPRP	true
RRIRKRPPRLPRPRPRPDDNPRP	true
RRIRCRPPRLPRPRPRPDKSPRP	false
RRIRFRPPRLPRPRPRPRFNPRP	false
RRIRVRPPRLPRPRPRPNELPRP	true
RRIRQRPPRLPRPRPRPNNRPRP	false
RRIRNRPPRLPRPRPRPMVDPRP	false
RRIRVRPPRLPRPRPRPHLMPRP	false
RRIRERPPRLPRPRPRPFYTPRP	false
RRIRDRPPRLPRPRPRPEMCPRP	true
RRIRIRPPRLPRPRPRPEHEPRP	false
RRIRMRPPRLPRPRPRPVFIPRP	false
RRIRKRPPRLPRPRPRPFKKPRP	true
RRIRCRPPRLPRPRPRPLTGPRP	false
RRIRGRPPRLPRPRPRPEVVPRP	true
RRIRPRPPRLPRPRPRPIFYPRP	false
RRIRERPPRLPRPRPRPQMNPRP	false
RRIRSRPPRLPRPRPRPCWMPRP	false
RRIRWRPPRLPRPRPRPQYFPRP	false
RRIRIRPPRLPRPRPRPWPIPRP	false
RRIRIRPPRLPRPRPRPTKNPRP	false
RRIRHRPPRLPRPRPRPFKLPRP	false
RRIRHRPPRLPRPRPRPAEPPRP	true
RRIRDRPPRLPRPRPRPKICPRP	true
RRIRERPPRLPRPRPRPMEAPRP	false
RRIRNRPPRLPRPRPRPIPYPRP	true
RRIRCRPPRLPRPRPRPQACPRP	true
RRIRGRPPRLPRPRPRPADQPRP	true
RRIRLRPPRLPRPRPRPHVWPRP	true
RRIRPRPPRLPRPRPRPLHRPRP	false
RRIRNRPPRLPRPRPRPDGWPRP	true
RRIRRRPPRLPRPRPRPLMVPRP	false
RRIRSRPPRLPRPRPRPVNRPRP	false
RRIRGRPPRLPRPRPRPRWSPRP	true
RRIRARPPRLPRPRPRPFNNPRP	false
RRIRYRPPRLPRPRPRPQGIPRP	false
RRIRMRPPRLPRPRPRPMQMPRP	true
RRIRRRPPRLPRPRPRPNKDPRP	true
RRIRLRPPRLPRPRPRPWGWPRP	true
RRIRQRPPRLPRPRPRPGKAPRP	true
RRIRGRPPRLPRPRPRPLIVPRP	true
RRIRVRPPRLPRPRPRPARTPRP	true
RRIRKRPPRLPRPRPRPNCYPRP	false

###

Recorded shrunken log2 fold change values for a group of sequences are listed next.
# Tested on: Escherichia coli TOP10
# experiment-summary: shrunken log2 fold change of peptide-encoding DNA abundance (4.5 h post-induction vs induction); higher = less antimicrobial activity (less host growth inhibition)
# experimental-parameters: time post-induction: 4.5 h; library: site-saturation at positions 5, 18, 19, 20

sequence-string	shrunken log2 fold change
RRIRGRPPRLPRPRPRPVWYPRP	0.196
RRIRTRPPRLPRPRPRPKAAPRP	0.565
RRIRVRPPRLPRPRPRPPKEPRP	0.0261

###

# Test system: Escherichia coli TOP10
# experiment-summary: shrunken log2 fold change of peptide-encoding DNA abundance (4.5 h post-induction vs induction); higher = less antimicrobial activity (less host growth inhibition)
# experimental-parameters: time post-induction: 4.5 h; library: site-saturation at positions 5, 18, 19, 20

sequence-string	shrunken log2 fold change
RRIRQRPPRLPRPRPRPNNNPRP	-0.825
RRIRQRPPRLPRPRPRPTCFPRP	0.132
RRIRNRPPRLPRPRPRPQLYPRP	-0.206
RRIRPRPPRLPRPRPRPWPFPRP	0.108
RRIRTRPPRLPRPRPRPEYAPRP	-0.00931
RRIRPRPPRLPRPRPRPDHPPRP	-0.147
RRIRNRPPRLPRPRPRPNFQPRP	-0.0807
RRIRFRPPRLPRPRPRPVMVPRP	-1.14
RRIRCRPPRLPRPRPRPNNSPRP	-0.743
RRIRIRPPRLPRPRPRPSVYPRP	-0.277
RRIRVRPPRLPRPRPRPMGHPRP	0.0767
RRIRRRPPRLPRPRPRPHPGPRP	0.316
RRIRGRPPRLPRPRPRPENFPRP	0.0598
RRIRARPPRLPRPRPRPCQPPRP	-0.0379
RRIRLRPPRLPRPRPRPSAIPRP	-0.189
RRIRMRPPRLPRPRPRPLHYPRP	-0.173
RRIRCRPPRLPRPRPRPNCAPRP	0.00777
RRIRFRPPRLPRPRPRPTWTPRP	-0.11
RRIRTRPPRLPRPRPRPGYMPRP	-0.297
RRIRFRPPRLPRPRPRPIRYPRP	-0.125
RRIRCRPPRLPRPRPRPHCYPRP	-0.135
RRIRMRPPRLPRPRPRPGGHPRP	0.516
RRIRRRPPRLPRPRPRPVKNPRP	0.148
RRIRRRPPRLPRPRPRPQYAPRP	0.0794
RRIRYRPPRLPRPRPRPSVTPRP	-0.421
RRIRKRPPRLPRPRPRPTRWPRP	0.413
RRIRNRPPRLPRPRPRPCNTPRP	-0.442

###

# Tested on: Escherichia coli TOP10
# experiment-summary: shrunken log2 fold change of peptide-encoding DNA abundance (4.5 h post-induction vs induction); higher = less antimicrobial activity (less host growth inhibition)
# experimental-parameters: time post-induction: 4.5 h; library: site-saturation at positions 5, 18, 19, 20

sequence-string	tested-system	shrunken log2 fold change
RRIRTRPPRLPRPRPRPWVWPRP	Escherichia coli TOP10	0.166
RRIRLRPPRLPRPRPRPSKKPRP	Escherichia coli TOP10	-0.0524
RRIRARPPRLPRPRPRPMGGPRP	Escherichia coli TOP10	0.0776

###

# Test system: Escherichia coli TOP10
# experiment-summary: shrunken log2 fold change of peptide-encoding DNA abundance (4.5 h post-induction vs induction); higher = less antimicrobial activity (less host growth inhibition)
# experimental-parameters: time post-induction: 4.5 h; library: site-saturation at positions 5, 18, 19, 20

sequence-string	shrunken log2 fold change
RRIRQRPPRLPRPRPRPMPQPRP	0.00445
RRIRGRPPRLPRPRPRPMVMPRP	0.342
RRIRGRPPRLPRPRPRPYSRPRP	-0.024
RRIRGRPPRLPRPRPRPKCVPRP	0.505
RRIRTRPPRLPRPRPRPYHIPRP	-1.06
RRIRIRPPRLPRPRPRPHTGPRP	-0.356
RRIRQRPPRLPRPRPRPSVTPRP	-0.0462
RRIRNRPPRLPRPRPRPAEPPRP	-0.00965
RRIRLRPPRLPRPRPRPSLMPRP	0.126
RRIRLRPPRLPRPRPRPTINPRP	-0.524
RRIRVRPPRLPRPRPRPFQFPRP	-0.171

###

# System: Escherichia coli TOP10;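 note: peptides expressed intracellularly from a pBAD plasmid library in pooled LB shake-flask culture, induced with 0.3% L-arabinose, DNA abundance read by NGS, three biological replicates, DESeq2 with apeglm shrinkage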
# experiment-summary: shrunken log2 fold change of peptide-encoding DNA abundance (4.5 h post-induction vs induction); higher = less antimicrobial activity (less host growth inhibition)
# experimental-parameters: time post-induction: 4.5 h; library: site-saturation at positions 5, 18, 19, 20
Recorded shrunken log2 fold change values for a group of sequences are listed next.

sequence-string	shrunken log2 fold change
RRIRSRPPRLPRPRPRPLPQPRP	0.461
RRIRGRPPRLPRPRPRPHVGPRP	0.0375
RRIRRRPPRLPRPRPRPTMSPRP	0.315
RRIRHRPPRLPRPRPRPCLPPRP	-0.041
RRIRQRPPRLPRPRPRPSEHPRP	-0.195
RRIRERPPRLPRPRPRPDWRPRP	-0.0634
RRIRFRPPRLPRPRPRPMMWPRP	-0.011
RRIRRRPPRLPRPRPRPKMYPRP	-0.258
RRIRQRPPRLPRPRPRPDLPPRP	-0.134
RRIRYRPPRLPRPRPRPVETPRP	-0.0299
RRIRCRPPRLPRPRPRPCPFPRP	-0.332
RRIRGRPPRLPRPRPRPDEIPRP	-0.0447
RRIRQRPPRLPRPRPRPGKIPRP	-0.0789
RRIRHRPPRLPRPRPRPGVLPRP	0.0408
RRIRTRPPRLPRPRPRPCWLPRP	-0.0724
RRIRRRPPRLPRPRPRPFKAPRP	0.182
RRIRLRPPRLPRPRPRPAHPPRP	0.522
RRIRMRPPRLPRPRPRPRKCPRP	0.0129
RRIRGRPPRLPRPRPRPLMVPRP	0.885
RRIRMRPPRLPRPRPRPCYIPRP	-0.133
RRIRERPPRLPRPRPRPCCIPRP	0.0508
RRIRPRPPRLPRPRPRPSCPPRP	-0.123
RRIRGRPPRLPRPRPRPRMQPRP	0.494
RRIRKRPPRLPRPRPRPKKMPRP	0.718
RRIRWRPPRLPRPRPRPAMHPRP	0.341
RRIRSRPPRLPRPRPRPYPLPRP	-0.105
RRIRLRPPRLPRPRPRPNERPRP	-0.0191

Hello, the source for this data is the supplement of paper PMC9112550, in case you need it.
